- Procedure Details: solvent given as SMILES
- Test Conditions: in CCCCO
Measure Name: emission maximum (nm)
Write the answer as a number in nm, unit excluded.

In [3]: df
Out[3]:
                               molecule      measure_name  number
0   Cc1ccc(/C=N/c2cc(C(C)C)c(O)cc2C)cc1  emission maximum     417
1  CCc1ccc(/C=N/c2cc(C(C)C)c(O)cc2C)cc1  emission maximum     420

Return the recorded emission maximum value; entry: "CN(C)c1ccc(/C=C/C=C2\CC/C(=C\C=C\c3ccc(N(C)C)cc3)C2=O)cc1"
739

Return the recorded emission maximum value; entry: "CCN(CC)c1ccc2cc(-c3ccc(C(F)(F)F)cc3)oc(=O)c2c1"
468

Return the recorded emission maximum value; entry: "O=C1c2ccccc2-c2ccc(N3CCN(c4ccccc4)CC3)c3cccc1c23"
581

Return the recorded emission maximum value; entry: "c1cc2ccc3ccc(-c4ccc(-c5nnc(-c6ccc(-c7nnc(-c8ccc(-c9ccc%10ccc%11cccc%12ccc9c%10c%11%12)s8)o7)cc6)o5)s4)c4ccc(c1)c2c34"
393

Return the recorded emission maximum value; entry: "CCCCCCC(CCCCCC)N1C(=O)c2cccc3c(-c4cc(OC)c(OC)c(OC)c4)ccc(c23)C1=O"
572

Return the recorded emission maximum value; entry: "COC(=O)c1c2ccccc2nc2ccccc12"
431

Return the recorded emission maximum value; entry: "COC(=O)c1ccc(-c2ccc(-c3nnc(-c4ccc(-c5nnc(-c6ccc(-c7ccc(C(=O)OC)cc7)s6)o5)cc4)o3)s2)cc1"
394

Return the recorded emission maximum value; entry: "COc1ccc(C2=C3C(C)=CC(C)=[N+]3[B-](F)(F)n3c(/C=C/c4ccc(N(C)C)cc4)cc(C)c32)cc1"
678

Return the recorded emission maximum value; entry: "O=S(=O)([O-])c1ccc(O)c2ccccc12"
361

Return the recorded emission maximum value; entry: "Cc1ccc(Nc2ccc(Nc3ccc(C)cc3)c3c2C(=O)c2ccccc2C3=O)cc1"
683
